Recorded values, source the RepoRT retention time repository (doi:10.1021/acs.analchem.2c02893).

Consider the following molecules and their measured LC retention time readings.
# method.description: RP, Thermo Scientific Acclaim RSLC 120 C18, 100 × 2.1 mm, 2.2 µm, 30 °C, 0.2 mL/min, estimated dead time 1.1 min; A: 90% water + 10% methanol + 0.01% formic acid + 5 mM ammonium formate, pH 3.61; B: methanol + 0.01% formic acid + 5 mM ammonium formate, pH 3.61; gradient (min/%B) 0/1 1/1 2/39 13/99.9 15/99.9 15.1/1 20.1/1
# experimental.conditions: stereoisomer not certain
Kindly provide the numeric value in min only, without the unit symbol.

C=CC=CCC1=C(C)C(OC(=O)C2C(C=C(C)C)C2(C)C)CC1=O (stereo unspecified) [Pyrethrin I] yielded LC retention time of 12.9

CCN(CC)CC(=O)Nc1c(C)cccc1C [Lidocaine] yielded LC retention time of 4.54

====

# method.description: RP, Thermo Scientific Acclaim RSLC 120 C18, 100 × 2.1 mm, 2.2 µm, 30 °C, 0.2 mL/min, estimated dead time 1.1 min; A: 90% water + 10% methanol + 0.01% formic acid + 5 mM ammonium formate, pH 3.61; B: methanol + 0.01% formic acid + 5 mM ammonium formate, pH 3.61; gradient (min/%B) 0/1 1/1 2/39 13/99.9 15/99.9 15.1/1 20.1/1
# experimental.conditions: stereoisomer not certain
reported.property: LC retention time (min)
Kindly provide the numeric value in min only, without the unit symbol.

Cc1ccc(N(SC(F)(Cl)Cl)S(=O)(=O)N(C)C)cc1 [Tolyfluanid] = 10.8
CC(NC(=O)C(N)CC(=O)O)C(=O)NC1C(C)(C)SC1(C)C (centres undefined) [Alitame] = 6.09
O=C(CCCN1CCC(O)(c2ccc(Br)cc2)CC1)c1ccc(F)cc1 [Bromperidol] = 7.12
CCOP(=S)(OCC)Oc1cc(C)nc(C(C)C)n1 [Diazinon] = 11
CCCC1OC2CC3C4CCC5=CC(=O)C=CC5(C)C4C(O)CC3(C)C2(C(=O)CO)O1 (centres undefined) [Budesonide] = 10.3

COc1nc(C)nc(N)n1 [2-Methyl-4-amino-6-methoxy-s-triazine] yielded LC retention time of 3.71

CC(=O)Nc1ccc(O)c(C(=O)O)c1 [N-Acetyl mesalazine] yielded LC retention time of 3.43

CC(C)(C)C(=O)C(Oc1ccc(Cl)cc1)n1ccnc1 (centres undefined) [Climbazole] yielded LC retention time of 10.1

CNC(C)CC1CCCCC1 (centres undefined) [Levopropylhexedrine] yielded LC retention time of 5.74

====

# method.description: RP, Thermo Scientific Acclaim RSLC 120 C18, 100 × 2.1 mm, 2.2 µm, 30 °C, 0.2 mL/min, estimated dead time 1.1 min; A: 90% water + 10% methanol + 0.01% formic acid + 5 mM ammonium formate, pH 3.61; B: methanol + 0.01% formic acid + 5 mM ammonium formate, pH 3.61; gradient (min/%B) 0/1 1/1 2/39 13/99.9 15/99.9 15.1/1 20.1/1
# experimental.conditions: stereoisomer not certain
Consider the following compounds and their measured LC retention time readings.
Kindly provide the numeric value in min only, without the unit symbol.

CNC(=O)Oc1ccccc1C(C)C [Isoprocarb] yielded LC retention time of 8.12

CNCCN1C(=O)C(OC(C)=O)C(c2ccc(OC)cc2)Sc2ccccc21 (centres undefined) [Diltiazem-Nor] yielded LC retention time of 7.21

COc1cccc2c(C(=O)NC3C4(C)CCC(C4)C3(C)C)cn(CCN3CCOCC3)c12 (centres undefined) [MN-25] yielded LC retention time of 11.7

CN1CCOC(c2ccccc2)c2ccccc2C1 (centres undefined) [Nefopam] yielded LC retention time of 5.67

CCOc1cc(CC(=O)NC(CC(C)C)c2ccccc2N2CCCCC2)ccc1C(=O)O (centres undefined) [Repaglinide] yielded LC retention time of 11.9

CCC(=O)c1ccc2c(c1)N(CCCN(C)C)c1ccccc1S2 [Promazine-Propionyl] yielded LC retention time of 8.49

CC1(C)OC2COC3(COS(N)(=O)=O)OC(C)(C)OC3C2O1 (centres undefined) [Topiramate] yielded LC retention time of 6.08

CON=C(C(=O)NC1C(=O)N2C(C(=O)O)=C(CSC(=O)c3ccco3)CSC12)c1csc(N)n1 (centres undefined) [Ceftiofur] yielded LC retention time of 5.44

CN1CCN(CCCN2c3ccccc3Sc3ccc(S(=O)(=O)N(C)C)cc32)CC1 [Thioproperazine] yielded LC retention time of 8.15

====

# method.description: RP, Thermo Scientific Acclaim RSLC 120 C18, 100 × 2.1 mm, 2.2 µm, 30 °C, 0.2 mL/min, estimated dead time 1.1 min; A: 90% water + 10% methanol + 0.01% formic acid + 5 mM ammonium formate, pH 3.61; B: methanol + 0.01% formic acid + 5 mM ammonium formate, pH 3.61; gradient (min/%B) 0/1 1/1 2/39 13/99.9 15/99.9 15.1/1 20.1/1
# experimental.conditions: stereoisomer not certain
Grouping key: LC retention time. Bins: low interval = under 7 min, middle interval = from 7 min up to 10 min, high interval = 10 min and over

Solved cases (2 shown):
COCCOc1c(OC)cc(Cc2cnc(N)nc2N)cc1OC = low interval
CCn1nc(C(=O)O)c(=O)c2cc3c(cc21)OCO3 = low interval

Form: Item = COC(=O)C(C)Oc1ccc(Cl)cc1C (stereo not given) ; Class = ?
high interval

Form: Item = CCc1cccc(C)c1N(C(=O)CCl)C(C)COC (stereo not given) ; Class = ?
high interval

====

# method.description: RP, Thermo Scientific Acclaim RSLC 120 C18, 100 × 2.1 mm, 2.2 µm, 30 °C, 0.2 mL/min, estimated dead time 1.1 min; A: 90% water + 10% methanol + 0.01% formic acid + 5 mM ammonium formate, pH 3.61; B: methanol + 0.01% formic acid + 5 mM ammonium formate, pH 3.61; gradient (min/%B) 0/1 1/1 2/39 13/99.9 15/99.9 15.1/1 20.1/1
# experimental.conditions: stereoisomer not certain
The threshold is inclusive: LC retention time of exactly 10 min counts as Yes; values below receive No.

Solved cases (3 shown):
COCCCOc1ccnc(CS(=O)c2nc3ccccc3[nH]2)c1C (stereo not drawn) = No
Cc1c(F)c(F)c(COC(=O)C2C(C=C(Cl)C(F)(F)F)C2(C)C)c(F)c1F.Cc1c(F)c(F)c(COC(=O)C2C(C=C(Cl)C(F)(F)F)C2(C)C)c(F)c1F (stereo not drawn) = Yes
CCCSP(=O)(OCC)Oc1ccc(Br)cc1Cl (stereo not drawn) = Yes

Moving on to another molecule below.
Confirm if LC retention time reported for the molecule `O=C(Nc1ccccc1)Nc1ccnc(Cl)c1` is 10 min or above.
No

====

# method.description: RP, Thermo Scientific Acclaim RSLC 120 C18, 100 × 2.1 mm, 2.2 µm, 30 °C, 0.2 mL/min, estimated dead time 1.1 min; A: 90% water + 10% methanol + 0.01% formic acid + 5 mM ammonium formate, pH 3.61; B: methanol + 0.01% formic acid + 5 mM ammonium formate, pH 3.61; gradient (min/%B) 0/1 1/1 2/39 13/99.9 15/99.9 15.1/1 20.1/1
# experimental.conditions: stereoisomer not certain
reported.property: LC retention time (min)
Kindly provide the numeric value in min only, without the unit symbol.

`CCOP(=O)(OCC)SCCSCC.CCOP(=S)(OCC)OCCSCC` yielded LC retention time of 8.91

CC(CC(c1ccccc1)c1ccccc1)NC(C)(C)C (centres undefined) yielded LC retention time of 7.91

====

Consider the following compounds and their measured LC retention time readings.
# method.description: RP, Thermo Scientific Acclaim RSLC 120 C18, 100 × 2.1 mm, 2.2 µm, 30 °C, 0.2 mL/min, estimated dead time 1.1 min; A: 90% water + 10% methanol + 0.01% formic acid + 5 mM ammonium formate, pH 3.61; B: methanol + 0.01% formic acid + 5 mM ammonium formate, pH 3.61; gradient (min/%B) 0/1 1/1 2/39 13/99.9 15/99.9 15.1/1 20.1/1
# experimental.conditions: stereoisomer not certain
Kindly provide the numeric value in min only, without the unit symbol.

These solved cases illustrate the format of a correct answer.
Cc1ccsc1C(=CCCN1CCCC(C(=O)O)C1)c1sccc1C (centres undefined) = 8.43
COc1cccc(C(=O)CCNC(C)C(O)c2ccccc2)c1 (centres undefined) = 6.14
CCCN(CCOc1c(Cl)cc(Cl)cc1Cl)C(=O)NC=O = 11.2
COc1cc(OC)nc(Oc2cccc(Oc3nc(OC)cc(OC)n3)c2C(=O)O)n1 = 8.86
CCN(CC)C(=O)C1C=C2c3cccc4c3C(O)(CC2N(C)C1)C(=O)N4 (centres undefined) [2-Oxo-3-hydroxy-LSD] = 4.23
CCOC(=O)C(CCc1ccccc1)NC(C)C(=O)N1C(C(=O)O)CC2CCCCC21 (centres undefined) = 9.55
Cc1ccc(N(CC2=NCCN2)c2cccc(O)c2)cc1 = 5.86
Clc1cccc(Cl)c1NC1=NCCN1 = 3.83

Attention now shifts to the item below.
CC12CCC3c4ccc(O)c(O)c4CCC3C1CCC2=O (centres undefined) yielded LC retention time of 8.69
